- System: Saccharomyces cerevisiae;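 note: PSI is a weighted mean of sequencing reads over stability bins, variants kept only with over 10 reads, mCherry proximal and sfGFP distal, peptide attached via GGGS linker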
- ASSAY REMARKS: protein stability index of tFT-peptide fusion (C-terminal peptide) (PSI (0-1 scale)); higher = more stable (slower turnover)
- SETUP CONDITIONS: genetic background: wild type; temperature: 30 C
Record form. Attribute: protein stability index. Fill in for each entry.
Give bare numbers.

>>> experimental_result("PPSPPPPRPSFP")
0.713
>>> experimental_result("CSPLNFGNGLLL")
0.584
>>> experimental_result("RSEPRQILHRQT")
0.702

Take each entry in turn and give its protein stability index.
1. GGGGGGGAGGSV
2. YASLPQSRPLSP

Result ::
0.673
0.651
